- measurementDescription: loss of swimming-algae plug formation – whole organism, Chlamydomonas reinhardtii, WT vs cilia-less mutant, absorbance, 96-well, primary screen (AID 463189);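 further: 0% = wild type cc124 cells in DMSO and 100% = ciliumless bld1 mutant cells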
- experimentalConditions: Chlamydomonas reinhardtii gravitaxis, OD600 absorbance, 2 days; at 10 µM
The source made the active and inactive calls.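 How the source made its calls: active means inhibition at or above 50% relative to wild type and mutant plate controls; inactive means inhibition below 50%.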
Form entry, call: pick from active, inactive

Check out these entries, answers already filled in.
N=C(N)c1ccccc1    inactive
N=C(N)c1ccc(OCCCCCOc2ccc(C(=N)N)cc2)cc1 (tested in a mixture with another compound)    active
Fc1ccc(CN(C2=NCCN2)c2c(Cl)cccc2Cl)cc1    inactive
N#CC(=C(\N)Sc1ccccc1N)/C(C#N)=C(/N)Sc1ccccc1N    inactive
N.N.N.N.N.N.N.N.N.N.N.N.N.N.O.O.[Cl-].[Cl-].[Cl-].[Cl-].[Cl-].[Cl-].[Ru+4].[Ru+5].[Ru+5]    active
CC1CCN(CC[C@H]2CCCN2S(=O)(=O)c2cccc(O)c2)CC1    inactive
NC1C=CC=C(C(=O)O)C1 (stereo unspecified)    inactive
Cn1cnc([N+](=O)[O-])c1Sc1ncnc2nc[nH]c12    inactive
CCN1/C(=C/C(C)=O)Sc2ccc(OC)cc21    inactive
CC(C)(Sc1ccc(CCN(CCCCC2CCCCC2)C(=O)NC2CCCCC2)cc1)C(=O)O    inactive

Next, consider the following compound.
Hello, I am checking results. What call was entered for N[C@@H](Cc1c[nH]c2ccccc12)C(=O)O ?
inactive

* * *

Recorded NADPH fluorescence slope for the following compounds
- target: Voltage-gated potassium channel subunit beta-2 (Rattus norvegicus) (UniProt P62483)
- Sequence (P62483 whole entry, looked up): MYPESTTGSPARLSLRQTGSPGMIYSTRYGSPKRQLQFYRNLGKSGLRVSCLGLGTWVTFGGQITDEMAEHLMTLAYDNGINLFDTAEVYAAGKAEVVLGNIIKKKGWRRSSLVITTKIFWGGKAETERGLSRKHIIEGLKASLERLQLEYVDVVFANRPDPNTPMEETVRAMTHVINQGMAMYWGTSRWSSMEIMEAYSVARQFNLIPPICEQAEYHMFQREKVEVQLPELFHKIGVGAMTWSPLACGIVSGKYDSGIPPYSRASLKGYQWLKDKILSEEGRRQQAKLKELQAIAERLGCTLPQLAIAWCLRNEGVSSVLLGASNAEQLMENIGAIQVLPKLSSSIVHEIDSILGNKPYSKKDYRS
- measurementDescription: enhancers of rat Kvbeta2 NADPH turnover – biochemical, NADPH fluorescence, primary screen (AID 623);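 further: fluorescence intensity change per second fitted from 20 to 320 s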
- experimentalConditions: Recombinant KvBeta, NADPH fluorescence decrease slope, 10 min; at 10 µM; stronger effect = lower value
Respond numerically, and do not add a unit to the figure.

# annotated cases, reported NADPH fluorescence slope shown
CCN(CC)C(=O)CSc1nc2ccc(NC(=O)CSc3nccn3C)cc2s1    -1.3e-05
CCOC(=O)c1ccc(Oc2nc(NC)nc(OC)n2)cc1    -1.6e-06
O=C(O)C1C2CCC(C2)C1C(=O)NCCCn1ccnc1 (centres undefined)    -8.2e-05
CCOc1ccc(CCNC(=O)CCc2nc(-c3ccc(OC)cc3)no2)cc1OCC    3.2e-05
COc1cc(C(=O)N2CCCC(c3nc(-c4cccs4)no3)C2)cc(OC)c1OC (centres undefined)    -0.000226
COc1ccc(-c2[nH]nc3c2C(c2ccccc2OC(=O)N2CCOCC2)C(C#N)=C(N)O3)cc1 (centres undefined)    -3.5e-05
COc1cccc(OCCOCCN(C)CCO)c1    -2.5e-05
Cc1nc2ccccc2c(=O)n1NC(=O)c1c(O)c2c(n(CC(C)C)c1=O)CCCC2    -5e-05
O=S(=O)(c1ccc(OCC(O)CN2CCN(c3ccccc3)CC2)cc1)N1CCOCC1 (centres undefined)    -1.7e-05
COc1ccccc1N1CCN(C(=O)c2ccc(CS(=O)(=O)c3ccccc3OC)o2)CC1    3.4e-05

GET /values?readout=NADPH fluorescence slope&system=Voltage-gated potassium channel subunit beta-2 (Rattus norvegicus) (UniProt P62483)&item= COc1ccc(OC)c(C2C3=C(CCCC3=O)Nc3c2c(=O)n(C)c(=O)n3C)c1 (centres undefined)
-0.000161

GET /values?readout=NADPH fluorescence slope&system=Voltage-gated potassium channel subunit beta-2 (Rattus norvegicus) (UniProt P62483)&item= COCn1c(COc2ccccc2)nc2ccccc21
-1.5e-05

GET /values?readout=NADPH fluorescence slope&system=Voltage-gated potassium channel subunit beta-2 (Rattus norvegicus) (UniProt P62483)&item= CCn1c(COc2cccc3ccccc23)nnc1SCC(N)=O
-6.7e-05

GET /values?readout=NADPH fluorescence slope&system=Voltage-gated potassium channel subunit beta-2 (Rattus norvegicus) (UniProt P62483)&item= O=C(NCCCN1CCOCC1)C1CC(=O)N(CCc2ccccc2)C1 (centres undefined)
1.7e-05

GET /values?readout=NADPH fluorescence slope&system=Voltage-gated potassium channel subunit beta-2 (Rattus norvegicus) (UniProt P62483)&item= CSc1cccc(NC(=O)C2CCN(S(C)(=O)=O)CC2)c1
3.2e-05

GET /values?readout=NADPH fluorescence slope&system=Voltage-gated potassium channel subunit beta-2 (Rattus norvegicus) (UniProt P62483)&item= Cc1cccc(OCC(=O)N2CCC(c3ccccc3)C2)c1 (centres undefined)
1.1e-05

GET /values?readout=NADPH fluorescence slope&system=Voltage-gated potassium channel subunit beta-2 (Rattus norvegicus) (UniProt P62483)&item= Cc1sc2nc(SCC(=O)NCc3ccco3)n(CCc3ccccc3)c(=O)c2c1C
5.5e-06

GET /values?readout=NADPH fluorescence slope&system=Voltage-gated potassium channel subunit beta-2 (Rattus norvegicus) (UniProt P62483)&item= COc1ccc(-c2nnc3ccc(SC(C(C)=O)C(C)=O)nn23)cc1OC
-5.5e-05

GET /values?readout=NADPH fluorescence slope&system=Voltage-gated potassium channel subunit beta-2 (Rattus norvegicus) (UniProt P62483)&item= COCCn1c(NCc2ccc(C)cc2)nc2c1c(=O)[nH]c(=O)n2C
-2.1e-05

* * *

Recorded cell count for the following compounds
- measurementDescription: inhibitors of TNFa-induced NFkB p65 translocation, primary screen, imaging, HUVEC, MLSMR starter and 10KST1 sets (AID 438);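 further: compound added about 3h40 before a 20 min TNFalpha stimulation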
- experimentalConditions: HUVEC TNFa-induced p65 nuclear translocation; measured here: nuclei count (cytotoxicity indicator), at 2.08 µM
Respond numerically, and do not add a unit to the figure.

Dear colleague, I am looking for the recorded cell count of the following compound: c1ccc(Cn2nnnc2C(c2ccccn2)N2CCOCC2)cc1 (stereo unspecified)
485

Dear colleague, I am looking for the recorded cell count of the following compound: COc1ccc(OC)c(C2C3=C(CCCC3=O)Nc3c2c(=O)n(C)c(=O)n3C)c1 (stereo unspecified)
508

Dear colleague, I am looking for the recorded cell count of the following compound: CC(C)Cn1c(=O)c(C(=O)NCc2ccccn2)c(O)c2ccccc21
771

Dear colleague, I am looking for the recorded cell count of the following compound: O=C1CCCc2c1cc(C(=O)NCc1ccco1)c(=O)n2-c1ccc(Cl)cc1
220

Dear colleague, I am looking for the recorded cell count of the following compound: c1ccc(CC2CCN(Cc3nc(-c4ccccc4)no3)CC2)cc1
229

Dear colleague, I am looking for the recorded cell count of the following compound: CCN(CC)C(=O)Oc1ccccc1NC(C)=O
366

* * *

- target: Voltage-gated potassium channel subunit beta-2 (Rattus norvegicus) (UniProt P62483)
- measurementDescription: inhibitors of rat Kvbeta2 reductase activity – biochemical, NADPH fluorescence, primary screen (AID 622);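 further: slope of raw intensity against log time taken from 70 to 1610 s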
- experimentalConditions: recombinant KvBeta, 4-cyanobenzaldehyde reduction, at 10 µM, stronger effect = higher value
assayMetric: fluorescence slope
Respond numerically, and do not add a unit to the figure.

# annotated cases, reported fluorescence slope shown
CCn1c(C(=O)N2CCCC(C(=O)O)C2)cc2sccc21 (stereo unspecified)    -0.485
Cc1ncoc1C(=O)Nc1ccccc1C(N)=O    -0.243
S=c1[nH]nc(COc2ccccc2)n1C1CCCCC1    -0.553
CC(C)NC(=O)NC(=O)COc1cccc2c1OC(C)(C)C2    -0.556
CC1CCc2cc(F)cc3c(=O)c(C(=O)O)cn1c23 (stereo unspecified)    -0.526
COC(=O)c1c(NC(=O)C2CC=CCC2C(=O)O)sc(C(N)=O)c1C (stereo unspecified)    -0.495

GET /values?readout=fluorescence slope&system=Voltage-gated potassium channel subunit beta-2 (Rattus norvegicus) (UniProt P62483)&item= CC1CC(=O)C2=C(C1)OC(N)=C(C#N)C2c1coc2ccccc2c1=O (stereo unspecified)
-0.514

GET /values?readout=fluorescence slope&system=Voltage-gated potassium channel subunit beta-2 (Rattus norvegicus) (UniProt P62483)&item= O=C(O)CCn1c(SCc2ccccc2)nc2ccccc21
-0.505

GET /values?readout=fluorescence slope&system=Voltage-gated potassium channel subunit beta-2 (Rattus norvegicus) (UniProt P62483)&item= O=C(CN1CCN(c2ncc(C(F)(F)F)cc2Cl)CC1)Nc1ccc2c(c1)OCO2
-0.559

GET /values?readout=fluorescence slope&system=Voltage-gated potassium channel subunit beta-2 (Rattus norvegicus) (UniProt P62483)&item= CCCCC(CC)C(=O)Nc1ccc(Cl)cn1 (stereo unspecified)
-0.377

GET /values?readout=fluorescence slope&system=Voltage-gated potassium channel subunit beta-2 (Rattus norvegicus) (UniProt P62483)&item= COc1ccc(OC)c(NC(=O)c2cn(C)c(=O)c3cc(OC)c(OC)cc23)c1
-0.307

* * *

- measurementDescription: blockers of RIG-like receptor reporter activation – cell-based, Sendai virus stimulus, luciferase, 10K MLSCN set, TLR/RLR signaling modifier project, primary screen (AID 602276);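 further: firefly luciferase from ISG56 promoter only with Renilla not read in this screen; 0% = Sendai virus plus DMSO and 100% = medium plus DMSO without virus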
- experimentalConditions: HEK293 RL24 IRF3 luciferase reporter, at 10 µM, stronger effect = higher value
assayMetric: inhibition (%)
# number only, unit % dropped from output

# annotated cases, reported inhibition shown
Cc1cc2oc(C(=O)NC3CCS(=O)(=O)C3)c(C)c2cc1C (stereo unspecified)    9.17
Cc1csc(NC(=O)c2sc3nc(-c4cccs4)ccc3c2N)n1    -19.2
COc1cc(C2C(C#N)=C(N)Oc3cc(N)ccc32)cc(OC)c1OC (stereo unspecified)    46.4
CCOc1cc(C2c3c(n[nH]c3C)C(=O)N2c2ccc(Br)cc2)ccc1O (stereo unspecified)    30.1
C/C(N)=C(\C#N)C(=O)NCCc1ccccn1    7.83

Next molecule, inhibition to be filled in.
Dear colleague, I am looking for the recorded inhibition of the following molecule: Cc1ccc(C(=O)CSc2nnc(-c3cccnc3)n2N)cc1
-0.185
